List of pIC50 values.
Biological target: Angiotensin-converting enzyme (Rattus norvegicus)
Sequence (P47820 whole entry): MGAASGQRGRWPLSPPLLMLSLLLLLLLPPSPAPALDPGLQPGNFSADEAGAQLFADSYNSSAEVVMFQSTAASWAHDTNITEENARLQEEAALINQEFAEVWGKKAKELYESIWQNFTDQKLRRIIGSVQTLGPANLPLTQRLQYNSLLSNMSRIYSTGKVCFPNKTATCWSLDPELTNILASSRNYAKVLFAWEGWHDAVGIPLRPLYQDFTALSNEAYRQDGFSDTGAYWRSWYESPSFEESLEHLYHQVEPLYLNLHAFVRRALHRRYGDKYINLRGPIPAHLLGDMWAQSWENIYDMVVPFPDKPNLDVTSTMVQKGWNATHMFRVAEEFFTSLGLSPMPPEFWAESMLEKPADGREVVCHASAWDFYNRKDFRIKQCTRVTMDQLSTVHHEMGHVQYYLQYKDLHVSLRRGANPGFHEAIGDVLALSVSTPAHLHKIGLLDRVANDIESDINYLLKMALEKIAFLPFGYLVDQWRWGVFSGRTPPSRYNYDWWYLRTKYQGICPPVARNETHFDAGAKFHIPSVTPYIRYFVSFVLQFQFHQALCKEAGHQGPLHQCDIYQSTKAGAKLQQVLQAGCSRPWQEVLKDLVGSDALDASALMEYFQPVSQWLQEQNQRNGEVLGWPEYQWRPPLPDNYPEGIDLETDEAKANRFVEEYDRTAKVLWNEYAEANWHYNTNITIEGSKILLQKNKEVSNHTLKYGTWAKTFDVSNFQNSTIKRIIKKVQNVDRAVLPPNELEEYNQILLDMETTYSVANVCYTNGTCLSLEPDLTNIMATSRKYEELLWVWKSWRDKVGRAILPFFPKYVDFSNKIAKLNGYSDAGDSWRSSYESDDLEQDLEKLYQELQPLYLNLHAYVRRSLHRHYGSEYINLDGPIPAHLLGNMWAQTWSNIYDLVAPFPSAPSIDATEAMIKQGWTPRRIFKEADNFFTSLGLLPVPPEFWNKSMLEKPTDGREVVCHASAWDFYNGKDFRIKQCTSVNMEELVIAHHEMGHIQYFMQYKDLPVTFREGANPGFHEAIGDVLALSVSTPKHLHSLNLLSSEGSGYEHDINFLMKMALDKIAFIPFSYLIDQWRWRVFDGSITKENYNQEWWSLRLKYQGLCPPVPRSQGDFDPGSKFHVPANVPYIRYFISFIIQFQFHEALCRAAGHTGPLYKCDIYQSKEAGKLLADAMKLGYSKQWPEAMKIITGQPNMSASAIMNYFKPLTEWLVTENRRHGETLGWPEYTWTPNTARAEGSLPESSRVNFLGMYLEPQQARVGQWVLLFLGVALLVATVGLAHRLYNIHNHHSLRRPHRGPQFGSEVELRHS
Quick note: pIC50 values are minus log10 of concentrations in mol/L.

Reference set, count: 5
[
  {
    "compound": "CC(CSC(=O)c1ccccc1)C(=O)N1c2ccccc2CC1C(=O)O (stereo in doubt; form 1)",
    "pIC50": 6.39
  },
  {
    "compound": "C[C@@H](CSC(=O)c1ccccc1)C(=O)N1c2ccccc2C[C@H]1C(=O)O (racemic)",
    "pIC50": 5.46
  },
  {
    "compound": "CC(CSC(=O)c1ccccc1)C(=O)N1c2ccccc2CC1C(=O)O (stereo in doubt; form 2)",
    "pIC50": 7.11
  },
  {
    "compound": "C1CCC(NC2CCCCC2)CC1.COc1ccc2c(c1)C[C@@H](C(=O)O)N2C(=O)[C@H](C)CSC(=O)c1ccccc1",
    "pIC50": 7.38
  },
  {
    "compound": "COc1ccc2c(c1)CC(C(=O)O)N2C(=O)C(C)CSC(=O)c1ccccc1 (stereo not drawn)",
    "pIC50": 7.01
  }
]

// sample C1CCC(NC2CCCCC2)CC1.C[C@@H](CSC(=O)c1ccccc1)C(=O)N1c2ccccc2C[C@H]1C(=O)O , its pIC50 was 6.27

// sample C[C@H](CSC(=O)c1ccccc1)C(=O)N1c2ccccc2C[C@H]1C(=O)O , its pIC50 was 7.42

* * *

List of pIC50 values.
target: Angiotensin-converting enzyme (Rattus norvegicus); assay: In vitro inhibitory activity against Angiotensin I converting enzyme
Quick note: pIC50 values are minus log10 of concentrations in mol/L.

Reference set, count: 2
[
  {
    "compound": "C[C@@H](CSC(=O)c1ccccc1)C(=O)N1c2ccccc2C[C@@H]1C(=O)O (racemic)",
    "experimental-system": "Angiotensin-converting enzyme (Rattus norvegicus)",
    "observation-type": "pIC50",
    "measured": 5.92
  },
  {
    "compound": "COc1ccc2c(c1)CC(C(=O)O)N2C(=O)C(C)CSC(=O)c1ccccc1 (stereo not given)",
    "experimental-system": "Angiotensin-converting enzyme (Rattus norvegicus)",
    "observation-type": "pIC50",
    "measured": 7.03
  }
]

// sample CCc1ccc2c(c1)CC(C(=O)O)N2C(=O)C(C)CSC(=O)c1ccccc1 (stereo not given) , its pIC50 was 7.52

// sample C[C@@H](CSC(=O)c1ccccc1)C(=O)N1c2ccccc2C[C@H]1C(=O)O , its pIC50 was 6.42

// sample C[C@H](CSC(=O)c1ccccc1)C(=O)N1c2ccccc2C[C@H]1C(=O)O , its pIC50 was 6.49

// sample CC(=O)SCC(C)C(=O)N1c2ccccc2CC1C(=O)O (stereo in doubt; form 2) , its pIC50 was 7.96

// sample C[C@@H]1CSC(=O)[C@@H]2Cc3ccccc3N2C1=O , its pIC50 was 7.85

* * *

Biological target: Angiotensin-converting enzyme (Rattus norvegicus)
Sequence (P47820 whole entry): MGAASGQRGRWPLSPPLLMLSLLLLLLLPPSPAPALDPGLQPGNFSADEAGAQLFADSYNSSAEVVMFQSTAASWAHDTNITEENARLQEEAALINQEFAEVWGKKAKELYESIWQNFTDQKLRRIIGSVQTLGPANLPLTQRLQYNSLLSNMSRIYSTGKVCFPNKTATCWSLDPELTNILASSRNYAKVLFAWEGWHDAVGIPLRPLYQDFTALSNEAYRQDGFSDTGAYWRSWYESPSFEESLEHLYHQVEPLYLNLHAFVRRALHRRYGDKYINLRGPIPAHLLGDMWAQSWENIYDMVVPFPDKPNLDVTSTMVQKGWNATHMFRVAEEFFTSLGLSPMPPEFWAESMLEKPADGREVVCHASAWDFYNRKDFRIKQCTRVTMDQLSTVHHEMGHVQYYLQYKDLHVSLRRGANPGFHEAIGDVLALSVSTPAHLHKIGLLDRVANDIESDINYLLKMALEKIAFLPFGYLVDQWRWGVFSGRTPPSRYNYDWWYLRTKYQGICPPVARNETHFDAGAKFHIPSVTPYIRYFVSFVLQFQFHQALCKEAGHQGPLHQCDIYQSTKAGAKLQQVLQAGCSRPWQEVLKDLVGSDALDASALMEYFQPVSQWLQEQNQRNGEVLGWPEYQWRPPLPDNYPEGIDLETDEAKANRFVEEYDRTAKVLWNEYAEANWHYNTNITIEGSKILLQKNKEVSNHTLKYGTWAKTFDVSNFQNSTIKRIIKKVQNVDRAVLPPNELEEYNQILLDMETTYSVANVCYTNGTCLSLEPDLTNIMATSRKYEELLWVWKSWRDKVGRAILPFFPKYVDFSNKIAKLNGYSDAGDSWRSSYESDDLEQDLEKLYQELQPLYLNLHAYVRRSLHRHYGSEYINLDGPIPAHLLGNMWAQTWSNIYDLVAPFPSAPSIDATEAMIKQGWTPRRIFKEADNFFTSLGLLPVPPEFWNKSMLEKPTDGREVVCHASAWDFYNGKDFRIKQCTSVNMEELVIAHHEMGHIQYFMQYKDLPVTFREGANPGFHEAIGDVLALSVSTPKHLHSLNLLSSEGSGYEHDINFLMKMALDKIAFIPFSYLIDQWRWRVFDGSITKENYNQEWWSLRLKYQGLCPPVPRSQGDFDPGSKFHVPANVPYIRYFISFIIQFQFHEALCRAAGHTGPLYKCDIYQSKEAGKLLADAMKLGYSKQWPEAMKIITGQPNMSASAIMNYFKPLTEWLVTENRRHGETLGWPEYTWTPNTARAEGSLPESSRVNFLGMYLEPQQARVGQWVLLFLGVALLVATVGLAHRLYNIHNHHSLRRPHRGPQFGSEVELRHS
pIC50: −log10 of the molar value.
observation-type: pIC50

[
  {
    "compound": "C[C@@H](CSC(=O)c1ccccc1)C(=O)N1c2ccccc2C[C@@H]1C(=O)O",
    "measured": "< 4.00"
  },
  {
    "compound": "C=CC(=O)N1c2ccccc2CC1C(=O)O (stereo not drawn)",
    "measured": "< 3.00"
  }
]

With those in mind, consider the next compound.
// sample C=C(C)C(=O)N1c2ccc(OC)cc2CC1C(=O)O (stereo not drawn) , its pIC50 was < 3.00
